Values compiled from patent US20260285866A1.

Catalogue of molecules with associated EC50
# System Under Test: Human TRPML1 (Homo sapiens, UniProt Q9GZU1, L15A/L16A/L577A/L578A)
# Sequence (Q9GZU1 whole entry L15A/L16A/L577A/L578A): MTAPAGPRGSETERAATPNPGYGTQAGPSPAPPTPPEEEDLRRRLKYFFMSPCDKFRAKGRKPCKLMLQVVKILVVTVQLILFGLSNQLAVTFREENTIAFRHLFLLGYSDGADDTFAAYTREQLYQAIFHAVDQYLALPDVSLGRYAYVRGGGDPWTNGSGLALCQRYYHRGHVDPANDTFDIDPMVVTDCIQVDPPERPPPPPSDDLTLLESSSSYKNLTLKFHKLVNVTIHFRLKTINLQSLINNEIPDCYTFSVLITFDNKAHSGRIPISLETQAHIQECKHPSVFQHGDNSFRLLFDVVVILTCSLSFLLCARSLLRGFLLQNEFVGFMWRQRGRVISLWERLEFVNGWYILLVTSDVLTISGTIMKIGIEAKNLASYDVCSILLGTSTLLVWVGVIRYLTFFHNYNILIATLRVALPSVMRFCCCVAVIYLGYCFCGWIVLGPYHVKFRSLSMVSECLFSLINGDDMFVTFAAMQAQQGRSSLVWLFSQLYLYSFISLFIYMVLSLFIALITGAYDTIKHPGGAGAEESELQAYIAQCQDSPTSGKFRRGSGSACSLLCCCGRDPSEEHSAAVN
# Procedure Details: Fluorescent TRPML1 assay (Fluo4-AM, HEK-293 Trex cells expressing hTRPML1)
# Applied Conditions: fluorescent calcium assay, doxycycline-induced hTRPML1

Some solved cases for reference:
{"columns": ["Molecule", "Quantity Name", "Recorded Value"],
 "data": [
  ["CCOC(C)(C)C(=O)N1C[C@H](C)N(c2ncnc3c2c(-c2ccccc2F)cn3-c2cc(C#N)ccn2)C[C@H]1C [Compound 164]", "EC50", "< 100 nM"],
  ["C[C@@H]1CN(c2ncnc3c2c(-c2cncnc2)cn3-c2cc(C#N)ccn2)[C@@H](C)CN1C(=O)C(C)(C)O [Compound 116]", "EC50", "> 2000 nM"],
  ["C[C@@H]1CN(c2ncnc3c2c(-c2ccno2)cn3-c2cc(C#N)ccn2)[C@@H](C)CN1C(=O)C(C)(C)O [Compound 152]", "EC50", "500 to 2000 nM"]
]}

Moving on to another molecule below.
In: Look up EC50: C[C@@H]1CN(c2ncnc3c2c(-c2ccncc2)cn3-c2cccc(Cl)c2)[C@@H](C)CN1C(=O)C(C)(C)O [Compound 137]
Out: 500 to 2000 nM
